# Protocol details: Primary qHTS to identify inhibitors of SARS-CoV-2 cell entry (AID 1645846); note: nearly all actives have a fitted effect of over 45% in size
# Measurement context: SARS-CoV-2 pseudovirus cell entry assay, luminescence; at 57.1 µM (top of the series) unless noted
Results filed as inconclusive are left out.
Entries and their activity change, negative = inhibition
Give the figure together with its unit, number first.

Reference set, count: 3
O=P(O)(O)OC(Cn1cncn1)(Cn1cncn1)c1ccc(F)cc1F	-20.2%
C[C@@H](Oc1ccc2[nH]nc(/C=C/c3cnn(CCO)c3)c2c1)c1c(Cl)cncc1Cl	-97.5%
C[C@]12C=CC(=O)C=C1CC[C@@H]1[C@@H]2[C@@H](O)C[C@@]2(C)[C@H]1CC[C@]2(O)C(=O)COC(=O)c1cccc(S(=O)(=O)O)c1	-5.05%

Could you now look at the following molecule, please?
Notebook: "COc1ccnc2[nH]cc(C(=O)C(=O)N3CCN(C(=O)c4ccccc4)C[C@H]3C)c12" , activity change, negative = inhibition read as -5.46%

====

# Protocol details: Cellular Toxicity (caspase-3) N2a (AID 665);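 note: compound exposure lasted 16 h at 37 °C before readout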
# Measurement context: N2a cells, luminescence, normalized: DMSO 0%, 10 µM staurosporine 100%; at 92.2 µM (top of the series)
Quantity kind: caspase-3 activation (%)
Number in %, nothing else.

Reference set, count: 3
O=C(Cl)C(Cl)(Cl)Cl	0.525
C1CCC2CCCCC2C1 (stereo unspecified)	-0.192
c1nc[nH]n1	-1.83

Notebook: "C=CCOC(=O)c1ccccc1N" , caspase-3 activation read as -3.47

Notebook: "CCCCCCCC(=O)Cl" , caspase-3 activation read as -0.621

====

# Assayed target: Cytochrome P450 3A4 (Homo sapiens) (UniProt P08684)
# Sequence (P08684 whole entry, looked up): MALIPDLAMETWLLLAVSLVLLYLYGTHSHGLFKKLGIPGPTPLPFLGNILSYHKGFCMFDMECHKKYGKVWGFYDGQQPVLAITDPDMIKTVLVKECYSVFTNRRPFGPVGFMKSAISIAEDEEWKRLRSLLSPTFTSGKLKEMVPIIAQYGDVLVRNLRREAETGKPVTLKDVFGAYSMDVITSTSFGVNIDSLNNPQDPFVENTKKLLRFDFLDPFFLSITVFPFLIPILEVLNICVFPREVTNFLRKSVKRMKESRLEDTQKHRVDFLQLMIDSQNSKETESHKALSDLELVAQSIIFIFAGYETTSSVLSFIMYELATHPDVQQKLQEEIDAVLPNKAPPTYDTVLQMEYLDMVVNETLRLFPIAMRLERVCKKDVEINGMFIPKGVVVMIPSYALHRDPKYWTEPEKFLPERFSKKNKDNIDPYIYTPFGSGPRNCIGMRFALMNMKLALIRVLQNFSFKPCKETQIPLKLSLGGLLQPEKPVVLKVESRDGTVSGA
# Protocol details: qHTS Assay for Activators of Cytochrome P450 3A4 (AID 885); note: nearly all actives have a fitted effect of over 65% in size
# Measurement context: recombinant CYP3A4, Luciferin-PPXE luminescence, 60 min; series mostly up to 57.1 µM
Activity calls are given as the source filed them. Calls come from the whole dose curve; as a rule, active = well fitted activation curve with a large enough effect; inconclusive = small, poorly fitted or top-dose-only effect; inactive = no such curve, though single readings can be large or run the other way.
Quantity kind: Potency

Reference set, count: 10
CC1=C2C3OC(=O)C(C)C3CC[C@@]2(C)C=CC1=O (some centres undefined)	inactive
CC1(C)C(=O)C=C[C@@]2(C)C1CC(O)[C@]1(C)C2CC[C@@]2(C)C(c3ccoc3)OC(=O)C3O[C@]312 (some centres undefined)	inactive
N#C/C(=C\c1ccc(O)cc1)C(=O)O	inactive
Cc1nnc2ccc(-c3cccc(C(F)(F)F)c3)nn12	inactive
ClC1=C(Cl)C2(Cl)C3C(Cl)C=CC3C1(Cl)C2(Cl)Cl (centres undefined)	inactive
CCCCC/C=C\C/C=C\C/C=C\C/C=C\CCCC(=O)Nc1ccc(O)cc1	inactive
CC1CC(O)[C@]2(O)[C@]13CC(=O)OC[C@@]2(C)[C@@](C)(O)C(=O)C3 (some centres undefined)	inactive
CN1CC[C@@]2(CCCN(C(=O)c3ccco3)C2)C1	inactive
O=C(O)C1=CCCN(CCOC(c2ccc(C(F)(F)F)cc2)c2ccc(C(F)(F)F)cc2)C1	inactive
O=C(Nc1ccccc1)N1CC[C@@]2(CCCN(C(=O)Oc3ccccc3)C2)C1	inactive

Notebook: "COc1cc2occc2c2oc(=O)ccc12" , Potency read as inactive

Notebook: "CN1Cc2c(ccc3c2OCO3)[C@@H]2[C@@H](O)Cc3cc4c(cc3[C@@H]21)OCO4" , Potency read as inactive

====

# Protocol details: KB-8-5-11 Cancer Cell Toxicity qHTS against the NCATS CANVASS Library (AID 1347364); note: nearly all actives have a fitted effect of over 75% in size
# Measurement context: KB-8-5-11 MDR cells viability, CellTiter-Glo, 72 h; series mostly up to 46.1 µM
Results filed as inconclusive are left out. Calls of active or inactive are those of the source. Calls come from the whole dose curve; as a rule, active = well fitted cell-killing curve with a large enough effect; inconclusive = small, poorly fitted or top-dose-only effect; inactive = flat fitted curve, though single readings scatter.
Respond with a class label; see 1.0 = active, 0.0 = inactive

The examples below pair each entry with its known result.
CC[C@]12C=CCN3CC[C@]4(C(=C(C(=O)OC)C1)Nc1ccccc14)[C@@H]32	0.0
C[C@]12CCC3[C@@H](CC[C@@H]4C[C@@H](O)CC[C@]34CO)[C@@]1(O)CC[C@@H]2C1=CC(=O)OC1 (stereo not given in full)	1.0
C[C@]12CC(O)C3[C@@H](CCC4C[C@@H](O)CC[C@@]43CO)[C@@]1(O)CC[C@@H]2C1=CC(=O)OC1 (stereo not given in full)	1.0

Query: For "c1ccc2nc3c(cc2c1)[nH]c1ccccc13" , which call appears in the assay record?
Result: 0.0

Query: For C1=C2CCCN[C@H]2C2CC1[C@H]1CCCCN1C2 (stereo not given in full) , which call appears in the assay record?
Result: 0.0

Query: For "O[C@H]1C=C[C@@]23CCN(Cc4cc5c(cc42)OCO5)[C@@H]3C1" , which call appears in the assay record?
Result: 0.0

Query: For CCCCC1CC[C@H]2CCCC(CCC)N12 (stereo not given in full) , which call appears in the assay record?
Result: 0.0

Query: For "C/C=C1/CN2CC[C@@]34c5ccccc5N(C)[C@@H]3[C@@H]2C[C@@H]1[C@H]4C(=O)OC" , which call appears in the assay record?
Result: 0.0

Query: For "C[N+](C)(C)CCc1c[nH]c2ccccc12" , which call appears in the assay record?
Result: 0.0

Query: For CO[C@H]1C[C@H](O[C@H]2[C@@H](O)C[C@H](O[C@H]3CC[C@]4(C=O)[C@H]5CC[C@]6(C)C(C7=CC(=O)OC7)CC[C@]6(O)[C@@H]5CC[C@]4(O)C3)O[C@@H]2C)O[C@H](C)[C@H]1O[C@H]1C[C@@H](OC)[C@@H](O[C@@H]2O[C@H](CO)[C@@H](O)[C@H](O)[C@H]2O)[C@@H](C)O1 (stereo not given in full) , which call appears in the assay record?
Result: 1.0

Query: For "COC1=C(C2=C(OC)C(=O)c3cc4c(c(O)c3C2=O)C(=O)O[C@H](C)C4)C(=O)c2c(cc3c(c2O)C(=O)O[C@H](C)C3)C1=O" , which call appears in the assay record?
Result: 0.0

Query: For "C=CC(C)(C)[C@@]12C[C@H]3C(=O)N/C(=C/c4cnc[nH]4)C(=O)N3[C@@H]1Nc1ccccc12" , which call appears in the assay record?
Result: 0.0

Query: For "CO[C@H]([C@@H](C)[C@H]1O[C@]1(C)C[C@H](C)/C=C/C=C(\C)[C@H]1O[C@@H](CC(=O)O)CC[C@@H]1C)[C@@H](C)O" , which call appears in the assay record?
Result: 1.0

Query: For "CO[C@H]1[C@H](O[C@H]2CC[C@]3(C=O)[C@H]4CC[C@]5(C)[C@@H](C6=CC(=O)OC6)CC[C@]5(O)[C@@H]4CC[C@]3(O)C2)O[C@H](C)[C@H](O)[C@@H]1OC" , which call appears in the assay record?
Result: 1.0

Query: For CC[C@@H]1CN2CCC3(Nc4cccc(OC)c4C3=O)[C@@H]2C[C@@H]1/C(=C\OC)C(=O)OC (stereo not given in full) , which call appears in the assay record?
Result: 0.0
